Just for reference, ChEMBL document CHEMBL1145220 is where these values come from.

assayed.target: Beta-secretase 1 (Homo sapiens, UniProt P56817)
Sequence (P56817 whole entry): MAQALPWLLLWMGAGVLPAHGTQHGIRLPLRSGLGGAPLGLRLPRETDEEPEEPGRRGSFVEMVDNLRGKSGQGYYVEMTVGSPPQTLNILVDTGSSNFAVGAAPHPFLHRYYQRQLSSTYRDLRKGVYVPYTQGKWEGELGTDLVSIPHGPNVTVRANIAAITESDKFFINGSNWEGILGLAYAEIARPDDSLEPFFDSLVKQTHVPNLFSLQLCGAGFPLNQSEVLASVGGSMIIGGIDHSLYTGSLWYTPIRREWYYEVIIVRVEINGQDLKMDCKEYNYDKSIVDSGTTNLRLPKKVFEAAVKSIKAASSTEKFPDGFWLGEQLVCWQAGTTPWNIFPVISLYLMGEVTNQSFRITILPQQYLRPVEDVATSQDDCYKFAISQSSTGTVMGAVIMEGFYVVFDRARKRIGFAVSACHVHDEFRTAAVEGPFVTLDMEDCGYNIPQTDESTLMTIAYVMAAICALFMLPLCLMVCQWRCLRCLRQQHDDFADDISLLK
assay.summary: Inhibitory activity against beta-secretase 1 (BACE1) at 2 uM
Numbered stars: 1 amine (or outer) side, 2 acyl side, 3 side chain; on linkers, the order of the positions; unused ones are H or OH. Square brackets hold non-standard residues; d marks the D form. Peptide text beside a SMILES is read from it. β3hPhe(2R-OH) = O=C([C@H](O)[C@H](Cc1ccccc1)N[*:1])[*:2]; Oxalyl = O=C(C(=O)[*:2])[*:1]; Dap = NC[C@H](N)C(=O)O
Listing of recorded inhibition by entry.
The figure you give is taken to be in %; do not add the unit.

Before answering, review these 3 worked examples.
[[record]]
molecule = "CC(C)C[C@H](NC(=O)[C@@H](NC(=O)[C@@H](N)CNC(=O)C(=O)O)C(C)C)C(=O)N[C@@H](Cc1ccccc1)[C@@H](O)C(=O)Nc1cccc(C(=O)O)c1"
quantity_kind = "inhibition"
quantity_unit = "%"
experimental_result = 98.4

[[record]]
molecule = "CC(C)C[C@H](NC(=O)[C@@H](NC(=O)[C@@H](N)CNC(=O)c1nn[nH]n1)C(C)C)C(=O)N[C@@H](Cc1ccccc1)[C@@H](O)C(=O)Nc1cccc(C(=O)O)c1"
quantity_kind = "inhibition"
quantity_unit = "%"
experimental_result = 99

[[record]]
molecule = "CC(C)C[C@H](NC(=O)[C@@H](NC(=O)[C@@H](N)CNC(=O)C(=O)O)C(C)C)C(=O)N[C@@H](Cc1ccccc1)[C@@H](O)C(=O)N[C@@H](CC(=O)O)C(=O)N[C@@H](C)C(=O)N[C@@H](CCC(=O)O)C(=O)O (H-[Dap](Oxalyl)VL[β3hPhe(2R-OH)]DAE-OH)"
quantity_kind = "inhibition"
quantity_unit = "%"
experimental_result = 96.7


Hi! What's the reported inhibition for `CC(C)C[C@H](NC(=O)[C@@H](NC(=O)[C@@H](N)CNC(=O)C(=O)O)C(C)C)C(=O)N[C@@H](Cc1ccccc1)[C@@H](O)C(=O)Nc1cc(C(=O)O)cc(C(=O)O)c1` on Beta-secretase 1 (Homo sapiens, UniProt P56817)?
99.8

Hi! What's the reported inhibition for CC(C)C[C@H](NC(=O)[C@@H](NC(=O)[C@H](CN)NC(=O)C(=O)O)C(C)C)C(=O)N[C@@H](Cc1ccccc1)[C@@H](O)C(=O)N[C@@H](CC(=O)O)C(=O)N[C@@H](C)C(=O)N[C@@H](CCC(=O)O)C(=O)O (Oxalyl-[Dap]VL[β3hPhe(2R-OH)]DAE-OH) on Beta-secretase 1 (Homo sapiens, UniProt P56817)?
75.2

Hi! What's the reported inhibition for `CC(C)C[C@H](NC(=O)[C@@H](NC(=O)[C@H](CN)NC(=O)C(=O)O)C(C)C)C(=O)N[C@@H](Cc1ccccc1)[C@@H](O)C(=O)Nc1cccc(C(=O)O)c1` on Beta-secretase 1 (Homo sapiens, UniProt P56817)?
87.9
